Sourced from the RNAGym collection of RNA variant scans (doi:10.1073/pnas.2313332121)

B1: TPR 5TU (parent)
chain: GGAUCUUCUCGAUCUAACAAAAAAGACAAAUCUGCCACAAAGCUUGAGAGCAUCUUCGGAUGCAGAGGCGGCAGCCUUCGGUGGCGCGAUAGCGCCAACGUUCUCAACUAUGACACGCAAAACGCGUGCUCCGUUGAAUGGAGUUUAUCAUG

# Variants of: B1
# ASSAY COMMENT: polymerase ribozyme fitness, log enrichment relative to wild type (log ratio); higher = more active; in vitro selection for triplet polymerase activity
This sample holds only a part of the variants without activity.
Response key: yes (1) means polymerase ribozyme fitness (log ratio) >= -3; no (0) means polymerase ribozyme fitness (log ratio) < -3.

VARIANT DESIGNATION | CLASS ASSIGNMENT
A41G G83C G143C | no (0)
U15G C51A A52C C69U C85A | no (0)
G50C U56A A73G C125A | no (0)
A41C U148G | no (0)
C8U C38G G92U C95U C99U U104A U145G | no (0)
A12C C57A G83U G136C | no (0)
U4A U9C C27G U55A G70C C85A U127G A142U | no (0)
C96U G117U A120U C149A | no (0)
C5U U13A C57G G141U | yes (1)
A23U G50A A60C A66U C85U C95G A122C | no (0)
G42C A60U G92U A119U C125A | no (0)
C54G C116U | yes (1)
C38G G141A | yes (1)
A20C C96U | yes (1)
A41U C63U U102C | no (0)
C36A C85U A89U C96G | no (0)
A16U U53A G80U C85U G152U | no (0)
A24C A47G C79U G94C C125U | no (0)
U53A C63U C69U A122U | no (0)
A52G A98U | yes (1)
A21G U56C C93U | yes (1)
C38U G86U C118U | yes (1)
A47C C57A G94A U144G | yes (1)
A16U A47C | yes (1)
C27U G46A C75A A91U G94A | no (0)
G80C G83U C118A G141C | no (0)
A21G A60G C63A C93G | no (0)
C35U C96G | yes (1)
A21C A40C C99G | yes (1)
U7A U111G | no (0)
